# system: Macrophage colony-stimulating factor 1 receptor (Homo sapiens, UniProt P07333)
# Sequence (P07333 whole entry, the tested form may be a part): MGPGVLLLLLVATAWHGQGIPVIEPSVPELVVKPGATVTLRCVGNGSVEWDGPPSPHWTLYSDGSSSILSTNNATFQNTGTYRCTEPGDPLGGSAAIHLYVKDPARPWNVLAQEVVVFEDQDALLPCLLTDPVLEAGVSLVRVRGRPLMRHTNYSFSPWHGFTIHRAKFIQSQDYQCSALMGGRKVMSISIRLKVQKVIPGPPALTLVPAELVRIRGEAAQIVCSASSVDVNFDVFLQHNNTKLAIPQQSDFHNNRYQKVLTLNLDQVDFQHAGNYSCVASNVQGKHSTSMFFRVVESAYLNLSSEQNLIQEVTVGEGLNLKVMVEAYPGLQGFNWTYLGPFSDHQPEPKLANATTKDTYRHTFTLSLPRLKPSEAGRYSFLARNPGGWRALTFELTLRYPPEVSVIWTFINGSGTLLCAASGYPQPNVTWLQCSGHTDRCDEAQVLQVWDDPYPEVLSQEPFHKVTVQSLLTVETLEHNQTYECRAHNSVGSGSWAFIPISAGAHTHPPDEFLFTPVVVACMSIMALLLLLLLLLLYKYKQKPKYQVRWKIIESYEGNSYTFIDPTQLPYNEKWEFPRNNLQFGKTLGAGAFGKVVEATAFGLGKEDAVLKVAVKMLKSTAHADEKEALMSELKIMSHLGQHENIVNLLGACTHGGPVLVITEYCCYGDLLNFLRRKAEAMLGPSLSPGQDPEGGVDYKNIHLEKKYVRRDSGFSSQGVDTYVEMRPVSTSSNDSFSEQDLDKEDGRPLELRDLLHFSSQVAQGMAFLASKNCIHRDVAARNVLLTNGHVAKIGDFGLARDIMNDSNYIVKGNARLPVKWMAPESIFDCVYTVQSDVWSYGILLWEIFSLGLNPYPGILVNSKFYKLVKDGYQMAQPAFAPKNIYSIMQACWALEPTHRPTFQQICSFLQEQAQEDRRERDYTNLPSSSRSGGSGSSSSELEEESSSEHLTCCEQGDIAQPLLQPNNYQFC
# protocolNotes: Displacement of kinase tracer 236 from recombinant human His-tagged CSF1R cytoplasmic domain (538 to 910 residues) expressed in baculovirus-infected insect cells measured after 5 hrs by TR-FRET based LanthaScreen assay
measuredParameter: IC50

Nc1ncnc2c3c(n(-c4ccc(NC(=O)Cc5cnn(-c6ccccc6)c5)cc4)c12)CCC3 ... 10 to 200 nM
Cc1ccc(F)c(NC(=O)Cc2ccc(-n3c4c(c5ncnc(N)c53)CCC4)cc2)c1 ... < 10 nM
COc1cc(-n2c3c(c4ncnc(N)c42)CCC3)ccc1NC(=O)Cc1cc(C)no1 ... 10 to 200 nM
COc1cc(-n2c3c(c4ncnc(N)c42)CCC3)ccc1NC(=O)Cc1ccc(C(=O)N(C)C)cc1 ... 10 to 200 nM
Nc1ncnc2c3c(n(-c4ccc(NC(=O)CC5CCNCC5)cc4)c12)CCC3 ... > 200 nM

Would you kindly look at the next entry?
Give reported IC50 value for "Nc1ncnc2c3c(n(-c4ccc(NC(=O)Cc5ccc(F)cc5)cc4)c12)CCC3"
< 10 nM

====

# system: Macrophage colony-stimulating factor 1 receptor (Homo sapiens, UniProt P07333)
# protocolNotes: Displacement of kinase tracer 236 from recombinant human His-tagged CSF1R cytoplasmic domain (538 to 910 residues) expressed in baculovirus-infected insect cells measured after 5 hrs by TR-FRET based LanthaScreen assay
measuredParameter: IC50

Please supply the value of reported IC50 for the item "COc1ccc(CC(=O)Nc2ccc(-n3c4c(c5ncnc(N)c53)CCC4)cc2OC)cn1"
0.01 to 0.2 µM

Return IC50 for the following molecule: "COc1cc(-n2c3c(c4ncnc(N)c42)CCC3)ccc1CC(=O)Nc1cnc(C(F)(F)F)nc1"
0.01 to 0.2 µM

Query IC50 for "Nc1ncnc2c3c(n(-c4ccc(NC(=O)Cc5ccc(Cl)c(C(F)(F)F)c5)cc4)c12)COC3"
< 0.01 µM

Read off the recorded IC50 for "COc1cc(-n2c3c(c4ncnc(N)c42)COC3)ccc1NC(=O)Cc1cc(C(F)(F)F)on1"
0.01 to 0.2 µM

Item "COc1cc(-n2c3c(c4ncnc(N)c42)COC3)ccc1NC(=O)Cc1ccnc(C(F)(F)F)n1" : provide IC50
> 0.2 µM

====

# system: Macrophage colony-stimulating factor 1 receptor (Homo sapiens)
# protocolNotes: Displacement of kinase tracer 236 from recombinant human His-tagged CSF1R cytoplasmic domain (538 to 910 residues) expressed in baculovirus-infected insect cells measured after 5 hrs by TR-FRET based LanthaScreen assay
IC50 values by entry

For orientation, consider the following solved cases.
Nc1ncnc2c3c(n(-c4ccc(NC(=O)Cc5ccccc5)c(C(F)(F)F)c4)c12)CCC3 ... > 200 nM
COc1cc(-n2c3c(c4ncnc(N)c42)CCC3)ccc1NC(=O)Cc1ncc(C)cc1F ... 10 to 200 nM
Nc1ncnc2c3c(n(-c4ccc(NC(=O)Cc5cccc(Cl)c5F)cc4)c12)CCC3 ... < 10 nM
COc1cc(-n2c3c(c4ncnc(N)c42)CCC3)ccc1NC(=O)Cn1cc(C(F)(F)F)cn1 ... < 10 nM
COc1cc(-n2c3c(c4ncnc(N)c42)COC3)ccc1NC(=O)Cc1ccccc1 ... < 10 nM
COc1ccc(CC(=O)Nc2ccc(-n3c4c(c5ncnc(N)c53)COC4)cc2)c(F)c1 ... 10 to 200 nM
Cc1cnc(CC(=O)Nc2ccc(-n3c4c(c5ncnc(N)c53)CCC4)cc2)c(F)c1 ... 10 to 200 nM
COc1cc(-n2c3c(c4ncnc(N)c42)CCC3)ccc1NC(=O)Cc1ccn(C(F)F)n1 ... < 10 nM
Nc1ncnc2c3c(n(-c4ccc(NC(=O)Cc5cccc(OC(F)F)c5)cc4)c12)CCC3 ... 10 to 200 nM
Nc1ncnc2c3c(n(-c4ccc(NC(=O)CCc5ccccc5)cc4)c12)CCC3 ... 10 to 200 nM

Kindly indicate its recorded IC50. Item: "CNC(=O)c1ccc(CC(=O)Nc2ccc(-n3c4c(c5ncnc(N)c53)CCC4)cc2OC)cc1"
> 200 nM

Note IC50 for the compound shown: "Nc1ncnc2c3c(n(-c4ccc(CC(=O)Nc5nc(C(F)(F)F)cs5)cc4)c12)CCC3"
10 to 200 nM

Answer with the recorded IC50 for the compound listed here: "COc1cc(-n2c3c(c4ncnc(N)c42)CCC3)ccc1CC(=O)Nc1cnn(C)c1"
> 200 nM

Return the recorded IC50 value; entry: Nc1ncnc2c3c(n(-c4ccc(NC(=O)C(F)c5ccccc5)cc4)c12)CCC3 (configuration not stated)
> 200 nM

Report measured IC50; entry is "COc1cc(-n2c3c(c4ncnc(N)c42)CCC3)ccc1NC(=O)Cn1ccc(C(F)(F)F)n1"
< 10 nM

Give recorded IC50. "COc1cc(-n2c3c(c4ncnc(N)c42)CCC3)ccc1NC(=O)Cn1cnc(C(F)(F)F)c1"
10 to 200 nM

Give the reported value of IC50 for this record: "CN(C)c1cc(CC(=O)Nc2ccc(-n3c4c(c5ncnc(N)c53)CCC4)cc2)ccc1C(F)(F)F"
10 to 200 nM

Determine its reported IC50: "Nc1ncnc2c3c(n(-c4ccc(NC(=O)Cn5cc(C(F)(F)F)cn5)cc4)c12)COC3"
10 to 200 nM

====

# system: UniProt P07333
# protocolNotes: Displacement of kinase tracer 236 from recombinant human His-tagged CSF1R cytoplasmic domain (538 to 910 residues) expressed in baculovirus-infected insect cells measured after 5 hrs by TR-FRET based LanthaScreen assay
IC50 values by entry

Known IC50 results, listed for orientation:
Nc1ncnc2c3c(n(-c4ccc(CC(=O)Nc5cc(C(F)(F)F)ccc5F)cc4)c12)COC3 ... 10 to 200 nM
COc1ccc(CC(=O)Nc2ccc(-n3c4c(c5ncnc(N)c53)COC4)cc2F)c(F)c1 ... > 200 nM
Cn1ncc(CC(=O)Nc2ccc(-n3c4c(c5ncnc(N)c53)CCC4)cc2)c1C(F)(F)F ... < 10 nM

Output IC50 of "Nc1ncnc2c3c(n(-c4ccc(NC(=O)Cc5cnn(C(F)F)c5)cc4)c12)CCC3"
10 to 200 nM

Return reported IC50. Input compound: "Nc1ncnc2c3c(n(-c4ccc(CC(=O)Nc5cc(C(F)(F)F)ccc5F)cc4)c12)CCC3"
< 10 nM

For the compound "COc1cc(-n2c3c(c4ncnc(N)c42)COC3)ccc1NC(=O)Cn1ccc(C(C)C)n1" , give its measured IC50 value.
< 10 nM

Tell me its IC50 given "COc1cc(-n2c3c(c4ncnc(N)c42)CCC3)ccc1NC(=O)Cc1ccc(Cl)c(C(F)(F)F)c1" as the entry.
10 to 200 nM

State its IC50 for this compound: "Nc1ncnc2c3c(n(-c4ccc(NC(=O)Cc5cc(C(F)(F)F)ccc5F)c(F)c4)c12)CCC3"
10 to 200 nM

Read off the recorded IC50 for "Nc1ncnc2c3c(n(-c4ccc(NC(=O)Cc5ccc(Cl)nn5)cc4)c12)CCC3"
10 to 200 nM

====

# system: Macrophage colony-stimulating factor 1 receptor (Homo sapiens, UniProt P07333)
# protocolNotes: Displacement of kinase tracer 236 from recombinant human His-tagged CSF1R cytoplasmic domain (538 to 910 residues) expressed in baculovirus-infected insect cells measured after 5 hrs by TR-FRET based LanthaScreen assay
pIC50: −log10 of the molar value.
measuredParameter: pIC50

Example compounds with recorded pIC50:
Nc1ncnc2c3c(n(-c4ccc(NC(=O)Cc5ccc(F)cc5C(F)(F)F)cc4)c12)CCC3 ... > 8.00
COc1cc(CC(=O)Nc2ccc(-n3c4c(c5ncnc(N)c53)CCC4)cc2)cc(OC)c1 ... < 6.70
Nc1ncnc2c3c(n(-c4ccc(CC(=O)Nc5ccc(C(F)(F)F)nn5)cc4)c12)CCC3 ... 6.70 to 8.00
COc1ccc(CC(=O)Nc2ccc(-n3c4c(c5ncnc(N)c53)CCC4)cc2)c(F)c1 ... > 8.00

Could you now consider this next compound?
Annotate the compound "COc1cc(-n2c3c(c4ncnc(N)c42)COC3)ccc1CC(=O)Nc1ccc(C(F)(F)F)nc1" with its measured pIC50.
> 8.00

====

# system: Macrophage colony-stimulating factor 1 receptor (Homo sapiens)
# protocolNotes: Displacement of kinase tracer 236 from recombinant human His-tagged CSF1R cytoplasmic domain (538 to 910 residues) expressed in baculovirus-infected insect cells measured after 5 hrs by TR-FRET based LanthaScreen assay
pIC50: −log10 of the molar value.
Reported pIC50 is given for each of the following compounds.

Nc1ncnc2c3c(n(-c4ccc(NC(=O)Cc5ccccc5)c(F)c4)c12)CCC3 ... < 6.70
Nc1ncnc2c3c(n(-c4ccc(NC(=O)Cn5ccc(C6CC6)n5)cc4)c12)CCC3 ... > 8.00

# return recorded pIC50 for entry "COc1cc(-n2c3c(c4ncnc(N)c42)CCC3)ccc1NC(=O)Cc1ccc(C(F)(F)F)nn1"
8.05

The origin of these recorded values is ChEMBL document CHEMBL4418299.
